# credit: patent US8846698B2

- Target or test system: TRKA (Homo sapiens (Human), UniProt P04629)
- Measurement protocol: Cell based DiscoveRx PathHunter antagonist assay, TRKA cell line
- Test context: read-out: TrkA cell potency
- Sequence (P04629 33-796): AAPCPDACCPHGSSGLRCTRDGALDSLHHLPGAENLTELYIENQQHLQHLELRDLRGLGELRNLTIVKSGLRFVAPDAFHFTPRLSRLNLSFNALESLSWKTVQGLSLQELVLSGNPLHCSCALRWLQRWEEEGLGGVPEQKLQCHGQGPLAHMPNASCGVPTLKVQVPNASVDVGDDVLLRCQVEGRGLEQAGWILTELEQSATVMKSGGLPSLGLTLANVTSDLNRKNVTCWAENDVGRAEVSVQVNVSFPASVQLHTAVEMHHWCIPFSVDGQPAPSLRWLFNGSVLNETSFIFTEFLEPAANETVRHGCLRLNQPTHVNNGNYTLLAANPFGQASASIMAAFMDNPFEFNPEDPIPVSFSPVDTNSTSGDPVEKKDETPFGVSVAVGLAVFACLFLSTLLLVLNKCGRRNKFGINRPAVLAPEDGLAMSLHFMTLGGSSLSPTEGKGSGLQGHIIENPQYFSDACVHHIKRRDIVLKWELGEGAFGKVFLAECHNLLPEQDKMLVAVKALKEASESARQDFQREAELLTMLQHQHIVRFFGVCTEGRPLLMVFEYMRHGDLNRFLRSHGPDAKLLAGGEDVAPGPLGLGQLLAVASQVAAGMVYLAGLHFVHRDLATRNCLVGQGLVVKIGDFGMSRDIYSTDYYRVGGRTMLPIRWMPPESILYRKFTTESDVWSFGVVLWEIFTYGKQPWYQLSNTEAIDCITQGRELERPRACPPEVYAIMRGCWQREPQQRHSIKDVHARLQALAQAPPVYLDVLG
Each entry below lists one item and its recorded log10 IC50 value.
A difference of one corresponds to tenfold IC50; all values are log10 with IC50 in nM.

Compound	log10 IC50
CC(CO)n1cc(C(=O)c2cncc(NC(=O)Cn3ccc(C(F)(F)F)n3)c2)c2cnc(N)nc21 (single isomer, unassigned) [Example 44]	3.00
CC(C)(CO)n1cc(C(=O)c2cncc(NC(=O)Cn3cc(C(F)(F)F)nn3)c2)c2cncnc21	1.94
C[C@@H](CO)n1cc(C(=O)c2cncc(NC(=O)Cn3ccc(C(F)(F)F)n3)c2)c2cncnc21	1.83

Inquiry: Using the record for CC(CO)n1cc(C(=O)c2cncc(NC(=O)Cc3ccc(Cl)cn3)c2)c2cnc(N)nc21 (single isomer, unassigned) [Example 41] , state its measured log10 IC50.
Reply text: 2.31

Inquiry: // fetch log10 IC50 given entry "C[C@H](CO)n1cc(C(=O)c2cncc(NC(=O)Cc3ccc(Cl)cn3)c2)c2cncnc21"
Reply text: 1.97

Inquiry: Retrieve log10 IC50 measured for CC(CO)n1cc(C(=O)c2cncc(NC(=O)Cc3ccc(C(F)(F)F)cc3)c2)c2cnc(N)nc21 (single isomer, unassigned) [Example 43] and print it.
Reply text: 1.23

Inquiry: Check the records and state log10 IC50 for "Cc1cc(C(F)(F)F)nn1CC(=O)Nc1cncc(C(=O)c2cn(C(C)(C)CO)c3ncncc23)c1"
Reply text: 1.15

Inquiry: Give me measured log10 IC50, please, for this compound: "CC(C)(CO)n1cc(C(=O)c2cncc(NC(=O)Cc3ccc(F)cn3)c2)c2cnc(N)nc21"
Reply text: 1.54

Inquiry: Input "CC(C)(C)n1cc(C(=O)c2cncc(NC(=O)Cc3ccc(F)cn3)c2)c2cncnc21" , output reported log10 IC50.
Reply text: 0.98

Inquiry: Note log10 IC50 for the compound shown: "CC(C)(CO)n1cc(C(=O)c2cncc(NC(=O)Cn3ccc(C4CC4)n3)c2)c2cnc(N)nc21"
Reply text: 1.20

Inquiry: Quickly give me recorded log10 IC50 for "C[C@@H](CO)n1cc(C(=O)c2cncc(NC(=O)Cc3ccc(C(F)(F)F)cc3)c2)c2cncnc21"
Reply text: 1.11

Inquiry: Please indicate log10 IC50 recorded for CC(CO)n1cc(C(=O)c2cncc(NC(=O)Cc3ccc(F)cn3)c2)c2cnc(N)nc21 (single isomer, unassigned) [Example 37]
Reply text: 3.35

----------
- Target or test system: TRKA (Homo sapiens (Human))
- Measurement protocol: Isolated TRK enzyme assay (HTRF KinEASE-TK), TRKA
- Type: biochemical
- Test context: read-out: Trka enzyme (IC50)
- Sequence (P04629 441-796): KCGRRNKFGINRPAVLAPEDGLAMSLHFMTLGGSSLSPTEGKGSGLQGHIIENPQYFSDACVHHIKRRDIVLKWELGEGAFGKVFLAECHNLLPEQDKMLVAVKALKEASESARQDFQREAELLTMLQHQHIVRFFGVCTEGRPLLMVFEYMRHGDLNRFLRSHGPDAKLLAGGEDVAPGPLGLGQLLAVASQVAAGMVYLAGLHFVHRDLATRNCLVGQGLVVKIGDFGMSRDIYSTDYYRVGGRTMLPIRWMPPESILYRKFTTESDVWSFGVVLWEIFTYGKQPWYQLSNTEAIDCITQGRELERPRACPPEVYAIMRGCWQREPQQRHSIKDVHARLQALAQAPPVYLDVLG
Structures can show the parent of a compound that is named as a salt.
Parameter measured: pIC50
Give only the number. pIC50 is defined as minus log10 of concentration in molar units.

Please review the entries below; each comes with its answer.
Molecule	pIC50
CC1(n2cc(C(=O)c3cncc(NC(=O)Cc4ccc(Cl)cn4)c3)c3cncnc32)COC1 [Example 310]	7.01
C[C@H](CO)n1cc(C(=O)c2cncc(NC(=O)Cc3ccc4cccnc4c3)c2)c2cncnc21 [Example 210]	6.73
CC(C)n1cc(C(=O)c2cncc(NC(=O)c3ccnc4[nH]ccc34)c2)c2cncnc21 [Example 407]	5.59
Cc1ccc2ccc(CC(=O)Nc3cncc(C(=O)c4cn(C(CO)CO)c5ncncc45)c3)cc2n1 [Example 275]	5.29
CC(C)n1cc(C(=O)c2cncc(NC(=O)Cn3cc(C4(O)CCCC4)nn3)c2)c2cncnc21 [Example 363]	5.99

Inquiry: Write down pIC50 measured for item Cc1coc2cnc(C(=O)Nc3cncc(C(=O)c4cn(C(C)C)c5ncncc45)c3)cc12 [Example 439]
Reply text: 7.65

Inquiry: // fetch pIC50 given entry CC(C)n1cc(C(=O)c2cncc(NC(=O)Cc3cccc(CN4CCOCC4)c3)c2)c2cncnc21 [Example 268, formate salt]
Reply text: 6.24

Inquiry: Answer with the recorded pIC50 of Cc1csc2nc(CC(=O)Nc3cncc(C(=O)c4cn(C(C)C)c5ncncc45)c3)cn12 [Example 373] only.
Reply text: 6.09

Inquiry: Return pIC50 (reported value) for this molecule: CC(C)n1cc(C(=O)c2cncc(NC(=O)Cc3ccn(-c4ccc(O)cc4)c3)c2)c2cncnc21 [Example 374]
Reply text: 6.65

Inquiry: Return pIC50 for the following molecule: Cc1cncnc1C(=O)Nc1cncc(C(=O)c2cn(C(C)C)c3ncncc23)c1 [Example 413]
Reply text: 5.01
